# TARGET_OR_TEST_SYSTEM: T1, human LAP-TGFB1 Fc fusion (human)
# T1 construct: also called human LAP-TGFβ1-Fc; human LAP-TGFβ-Fc isoform 1
# T1 sequence (chain, as listed by the source limits assumed): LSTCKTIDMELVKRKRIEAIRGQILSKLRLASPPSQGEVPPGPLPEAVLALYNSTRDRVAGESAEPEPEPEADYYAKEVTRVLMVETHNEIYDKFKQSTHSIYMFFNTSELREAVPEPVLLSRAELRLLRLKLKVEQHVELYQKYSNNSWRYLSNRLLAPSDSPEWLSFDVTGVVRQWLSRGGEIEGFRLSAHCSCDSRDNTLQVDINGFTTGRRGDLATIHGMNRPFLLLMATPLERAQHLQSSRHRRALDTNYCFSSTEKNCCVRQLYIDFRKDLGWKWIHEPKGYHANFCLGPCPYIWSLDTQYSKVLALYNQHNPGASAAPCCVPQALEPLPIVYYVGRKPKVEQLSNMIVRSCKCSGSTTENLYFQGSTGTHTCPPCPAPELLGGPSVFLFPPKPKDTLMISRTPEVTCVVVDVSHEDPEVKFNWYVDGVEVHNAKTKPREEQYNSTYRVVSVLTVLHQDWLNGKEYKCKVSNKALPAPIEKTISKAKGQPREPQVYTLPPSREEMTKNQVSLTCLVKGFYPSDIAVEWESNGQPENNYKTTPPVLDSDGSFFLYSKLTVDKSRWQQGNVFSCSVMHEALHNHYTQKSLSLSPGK
# TEST: SPR, antigen-Fc captured, Fab analyte
ENDPOINT: koff
Record the result as number plus unit.

Here's what some known entries look like.
81BJN (Fab, V domains shown, also called VH S31E W33D K59R Y104Q V107A / VL T30Y R53V (81BJN)) VH: EVQLVQSGAEVKKPGASVKVSCKASGYTFTEYDMHWVRQAPGQGLEWMGRIDPQSGGIRYAQKFQGRATLTVDTSTSTAYMELSRLRSDDTAVYYCARWDYGGQFDAWGQGTLVTVSS VL: DIQMTQSPSSLSASVGDRVTITCRASQDIYNYLNWYQQKPGKAVKLLIYYTSVLHSGVPSRFSGSGSGTDYTLTISSLQPEDFATYFCQQGDTLPWTFGQGTKLEIKR : 2.56e-05 s⁻¹
74BJN (Fab, V domains shown, also called VH S31Y W33D M34L / VL T30Y T93D L94I (74BJN)) VH: EVQLVQSGAEVKKPGASVKVSCKASGYTFTYYDLHWVRQAPGQGLEWMGRIDPQSGGIKYAQKFQGRATLTVDTSTSTAYMELSRLRSDDTAVYYCARWDYGGYFDVWGQGTLVTVSS VL: DIQMTQSPSSLSASVGDRVTITCRASQDIYNYLNWYQQKPGKAVKLLIYYTSRLHSGVPSRFSGSGSGTDYTLTISSLQPEDFATYFCQQGDDIPWTFGQGTKLEIKR : 0.00181 s⁻¹
77BJN (Fab, V domains shown, also called VH W33D I58V / VL T30Y R53V T93E (77BJN)) VH: EVQLVQSGAEVKKPGASVKVSCKASGYTFTSYDMHWVRQAPGQGLEWMGRIDPQSGGVKYAQKFQGRATLTVDTSTSTAYMELSRLRSDDTAVYYCARWDYGGYFDVWGQGTLVTVSS VL: DIQMTQSPSSLSASVGDRVTITCRASQDIYNYLNWYQQKPGKAVKLLIYYTSVLHSGVPSRFSGSGSGTDYTLTISSLQPEDFATYFCQQGDELPWTFGQGTKLEIKR : 0.00027 s⁻¹
68BJN (Fab, V domains shown, also called VH H35Q S55D S57D W99Y / VL T30Y R53V (68BJN)) VH: EVQLVQSGAEVKKPGASVKVSCKASGYTFTSYWMQWVRQAPGQGLEWMGRIDPQDGDIKYAQKFQGRATLTVDTSTSTAYMELSRLRSDDTAVYYCARYDYGGYFDVWGQGTLVTVSS VL: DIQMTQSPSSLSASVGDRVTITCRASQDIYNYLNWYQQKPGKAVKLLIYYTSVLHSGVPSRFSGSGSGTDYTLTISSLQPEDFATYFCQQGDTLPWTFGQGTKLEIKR : 8.34e-05 s⁻¹

Turning to the following binder.
For 57BJN (Fab, V domains shown, also called VH W33D / VL (57BJN)) VH: EVQLVQSGAEVKKPGASVKVSCKASGYTFTSYDMHWVRQAPGQGLEWMGRIDPQSGGIKYAQKFQGRATLTVDTSTSTAYMELSRLRSDDTAVYYCARWDYGGYFDVWGQGTLVTVSS VL: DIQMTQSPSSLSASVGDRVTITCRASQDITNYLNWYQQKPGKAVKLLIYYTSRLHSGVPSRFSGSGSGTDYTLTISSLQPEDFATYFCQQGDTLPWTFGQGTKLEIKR the binder record lists koff as 0.0178 s⁻¹
